Listed below: soluble fraction (log2) values for each entry.
assay: soluble fraction after stress (log2 fold change); higher = more stays soluble; pooled small domains, quantitative proteomics; conditions: stress: pH 4
Response field accepts a number only; no unit should be typed.

> print(dat)
                              sequence.text  reported.measurement
1  HMGTLSLLVQKLMAVGLEGAKASEIVERFDRERIERQINALPSRKIKSSRTGFLIRAIELDIPVE                 -1.31
2  HMGIDVSAFSDTALEVLRLQAAGYTTREIAQQLHITQRTVKYHASENYRKLDARNLVDAVQIAQSLHI                -0.602
3  HMTDSQLVEAENHVALRQAMAHLGPRERELIGLYYFEEQSQTQIAARFGVSQMQVSRWLTSAVGRIRGQMA                 0.131
4  HMAEVRTLLVPIELAGMRFDQVLAELLPEFSRSRLAAWIKSGDALLDGHDAKPKGVVRGGEQIEIRLA                -0.167
5  HMYPATGTVVTAGGHLNMRSEPDRSGAILARIPNGTALTLTGKNGDWYAATYAGRSGYVSAQYISLS                 -0.13

Ask: Write down soluble fraction (log2) measured for item HMEKKPYGEMHNVMLTDEELEKLRHDYPAHFAEYIQRLSLHIDAKGARYKSHYAVIRKWLIADGVKA
Result: 0.0221

Ask: Recall and state the measured soluble fraction (log2) for HMRPRQDRSEETRDRILDAVVELIAERGLAGVSHRAVADRAGVSLSATSYYFGSKAELERAALEEHYRR .
Result: -0.992

Ask: Find the measured soluble fraction (log2) of HMLDPVLQREKDESFTDYHIRLFKNKDTYHIDTKTIATLLNKDQGTNYDESKWRKDFKQYERWNDYIMSKN and report it.
Result: -0.155

* * *

assay: soluble fraction after stress (log2 fold change); higher = more stays soluble; pooled small domains, quantitative proteomics; details: stress: pH 4
Quick reference for soluble fraction (log2) among some sequences
No unit in the answer, please; the number alone is enough.

> print(dat)
                              sequence.text             assay.metric  reported.measurement
1  HMLPLPRFASLDSSEANLRAGPGKDYPILWVYQRKGLPVEIIQEFDTWRRIRDRDGTVGWVQQNLL  soluble fraction (log2)                -0.568
2  HMPDITAAVARTLQALRADRGWSLDQLAARSGVSKGVLVALEQGRSNPNLATLARIGDAFGVPVTLLVDL  soluble fraction (log2)                -0.196
3  HMGEQVAVPDVTKKSVREVNNILTSAGLRLQIEGSGISVRQDPPADTMVAPDTVVTVSFEPP  soluble fraction (log2)               -0.0261
4  HMQMRKENKILVTDIGEIDEVKVIFDDDNKPYLYSYNGEDEFYRPDETYKFFDNKEQAEEYVREN  soluble fraction (log2)                -0.891
5  HMAIELIDLIKNPETAPFSKLKYLKWMPEAEVTGFFNNLFQLNVTARETGDWSTVDKFLEDEGDRIAAQVA  soluble fraction (log2)                -0.215
6  HMIGKDLLGYEVFSESGDLVGILKDVMWLPHSDVYVITNGGKELLIPVIPEVVKGINHEQGVIVISPM  soluble fraction (log2)                 -1.04
7  HMAGASQAVKAQLRLREMILAGELPGGARIAELTLVEKLGVSRTPIRAALMRLEQEGLLHRLPGGGYAVRT  soluble fraction (log2)                 -0.41

Turning now to a further record.
Ask: Give the measured soluble fraction (log2) for HMPNPSAGRVHIDALLPFDRVEVTDMQGSLLLDHSFSPRRAVDLDLNARGTLLYTLWSKGHLLGKGRVVR
Result: 0.213

* * *

Quick reference: soluble fraction (log2) of the listed items.
assay: soluble fraction after stress (log2 fold change); higher = more stays soluble; pooled small domains, quantitative proteomics; settings: stress: pH 4
Just the number, please, no unit after it.

Below: 4 sequences and their reported soluble fraction (log2).
> print(dat)
                              sequence.text  reported.measurement
1  HMYEGNEFSSTGMFREDILAITAVHPMREDAVTELLARSNESEETLEMMIDEELLRRVAYGNHNYYMRRFR                -0.388
2  HMGLGQRIKARREALGLSQARLGEAVGVSLQAVSNWERDEYLPDTARLPLIARALGLTPGQLME                  0.11
3  HMNREIVVYITGAVDNPGLYRLPLDSRLDDVLKLAVLSTNADREVLNPAQKLKDGQKIVVPYIVE                -0.452
4  HMEDVRSLTGPEKAAIILLSLGEEHGQGVWRMFDDEEVKEVSQIMANLGTISASVVEKLLVEFVSQMST                  -1.5

Ask: Answer with the recorded soluble fraction (log2) of HMHDEKHHQLANEIARKWAALRGNRDFAAADELKNLAAEAGVELQATKQAVGQGALAKLKENFDPVKLEAL only.
Result: 0.22

Ask: Identify measured soluble fraction (log2) corresponding to HMVVEGMQFDRGYLSQYMVTDNEKMVADLENPYILITDKKISNIQEILPLLESILQSSRPLLIIADD
Result: -0.573

Ask: Input HMNLYENLATHVKNAIRQGVYQPGDRLPSVRRLSEQHRVSQNTAVSAYRLLESHGWLEARPQSGFFARHP , output reported soluble fraction (log2).
Result: 0.297

Ask: Identify measured soluble fraction (log2) associated with HMSLPKIVVPTDVTVSQLAKYLEVDAISIIKQLFGMGVVASLNQRLEDEIIQLIGNEFGKEIIFSE
Result: -0.107

Ask: # return recorded soluble fraction (log2) for entry HMPLVIIRGIEGVFSSEEKAEAIRKVTDALVSVKGENVRGFAWVVFEEVKSGDWGIGGESITAEKVIMSL
Result: -0.39

* * *

assay: soluble fraction after stress (log2 fold change); higher = more stays soluble; pooled small domains, quantitative proteomics; details: stress: pH 4
Response key: 1.0 means soluble fraction (log2) >= -0.007; 0.0 means soluble fraction (log2) < -0.007.

> print(dat)
                              sequence.text  group
1  HMDQVYYDLKSLIELLPADQMEVLKMRYFEELSFKKIAQKIDVSINTALGRMRYALINLRALSKKHHID    0.0
2  HMNLGNLLKIYRKNSLLTQQQVADALNINRTTYTYYETGKTEPSIDTLHKLIKIFGITYDDLL    0.0
3  HMQISDSASVKTVVAEAIAANPKAVADFMNGKDTATRYLVGQVMKITKGQAKPELVNQLVLESLAELKEK    1.0
4  HMFQNYTDAVVVASKTFFYNMPDESTRKSAYLIQGDRIMVEKSQRNFVYVTFTNEASGRTTTGWLKSDDLE    0.0
5  HMSSEDTQSRDRARKELSNEMSRIMKRYGLDYQPRDNADDIMNRLKAAGADENTLAYVQEKLK    1.0

Ask: Item HMKIQEVDYSTFLNMLNEKSIAQVEIQDNQIAFNSNQEGNKQIYVTGRIEEDTELVNRLQAAGVQFSRV with soluble fraction (log2) of -0.007 or above?
Result: 0.0

* * *

experiment: soluble fraction after stress (log2 fold change); higher = more stays soluble; pooled small domains, quantitative proteomics; settings: stress: pH 4
Please use Met whenever soluble fraction (log2) is not below 0.1, and Not met whenever it is.

Answered examples (7):
> print(dat)
                              sequence.text    group
1  HMPRVSIEKIKKVVELLKHNPDYTYSKIGNIVGIGRKTVSGINNGKLYTDLVEELGINEFPI  Not met
2  HMNSKKRQAILESLRSVTDHPTAEMIYNRLKPEYPDLSLGTVYRNLAMFLEEGQVISVGTVDGQERYDAR      Met
3  HMGTYTSALDGIKGLGKKRKMLLLNTYKSIDVLKSVPLTELSQLIPREVAEALLTKLNRVDD      Met
4  HMQVITEPFQEKYREFINMSTVTQRLEERETLSFTAQTVEGRWLTIIIVPQGYDKTGKLSTVLVANR      Met
5  HMAGAITEREVEVLELLSRGLGNKEIAKELFVSEATVKSHLSHIYTKLAVDTRAGAVAAAIERRIIRAWR  Not met
6  HMVIGKHSGSHTLVNDLAKRGITLDKEESATLLEMVRKAAVGLHRSISSDELYGLYKDMKSGQDPFEDS      Met
7  HMAVRLADMAAEKIRKMIIENKFDAGEPLSEMRLAEMFNVSRTPIREAIAILEQEGLLTTVHGKGAFIS  Not met

Ask: Can HMDYEVPEELEEKFSENPQFKEAFDNLTPGRQHQYIYHISQAKRSQTRINRIEKYYEHILNGKGMQD be said to have soluble fraction (log2) at or above 0.1?
Result: Met
